targetOrSystem: CYP3A4 (Homo sapiens)
Sequence (P08684 whole entry): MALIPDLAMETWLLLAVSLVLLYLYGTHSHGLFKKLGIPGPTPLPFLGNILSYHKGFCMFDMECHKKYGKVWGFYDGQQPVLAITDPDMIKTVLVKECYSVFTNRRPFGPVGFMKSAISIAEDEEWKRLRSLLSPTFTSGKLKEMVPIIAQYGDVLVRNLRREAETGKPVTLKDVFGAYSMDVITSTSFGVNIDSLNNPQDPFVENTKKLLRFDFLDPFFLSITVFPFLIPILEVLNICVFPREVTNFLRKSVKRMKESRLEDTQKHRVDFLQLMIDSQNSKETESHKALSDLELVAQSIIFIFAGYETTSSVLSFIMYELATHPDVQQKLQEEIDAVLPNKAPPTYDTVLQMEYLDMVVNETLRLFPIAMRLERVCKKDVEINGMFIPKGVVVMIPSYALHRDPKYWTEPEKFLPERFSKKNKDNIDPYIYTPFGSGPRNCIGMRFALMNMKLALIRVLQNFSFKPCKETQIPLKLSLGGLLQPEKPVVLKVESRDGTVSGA
measuredQuantity: pIC50
Conceptually, pIC50 converts a concentration in mol/L into minus its log10.

Task: Value lookup for pIC50; key = CCc1nc2ccc(Cl)cn2c1C(=O)NCc1ccc(N2CCN(S(C)(=O)=O)C=N2)cc1 [Compound 20]
Output: 4.88

----------
targetOrSystem: hERG (Homo sapiens)
Sequence (Q12809 whole entry): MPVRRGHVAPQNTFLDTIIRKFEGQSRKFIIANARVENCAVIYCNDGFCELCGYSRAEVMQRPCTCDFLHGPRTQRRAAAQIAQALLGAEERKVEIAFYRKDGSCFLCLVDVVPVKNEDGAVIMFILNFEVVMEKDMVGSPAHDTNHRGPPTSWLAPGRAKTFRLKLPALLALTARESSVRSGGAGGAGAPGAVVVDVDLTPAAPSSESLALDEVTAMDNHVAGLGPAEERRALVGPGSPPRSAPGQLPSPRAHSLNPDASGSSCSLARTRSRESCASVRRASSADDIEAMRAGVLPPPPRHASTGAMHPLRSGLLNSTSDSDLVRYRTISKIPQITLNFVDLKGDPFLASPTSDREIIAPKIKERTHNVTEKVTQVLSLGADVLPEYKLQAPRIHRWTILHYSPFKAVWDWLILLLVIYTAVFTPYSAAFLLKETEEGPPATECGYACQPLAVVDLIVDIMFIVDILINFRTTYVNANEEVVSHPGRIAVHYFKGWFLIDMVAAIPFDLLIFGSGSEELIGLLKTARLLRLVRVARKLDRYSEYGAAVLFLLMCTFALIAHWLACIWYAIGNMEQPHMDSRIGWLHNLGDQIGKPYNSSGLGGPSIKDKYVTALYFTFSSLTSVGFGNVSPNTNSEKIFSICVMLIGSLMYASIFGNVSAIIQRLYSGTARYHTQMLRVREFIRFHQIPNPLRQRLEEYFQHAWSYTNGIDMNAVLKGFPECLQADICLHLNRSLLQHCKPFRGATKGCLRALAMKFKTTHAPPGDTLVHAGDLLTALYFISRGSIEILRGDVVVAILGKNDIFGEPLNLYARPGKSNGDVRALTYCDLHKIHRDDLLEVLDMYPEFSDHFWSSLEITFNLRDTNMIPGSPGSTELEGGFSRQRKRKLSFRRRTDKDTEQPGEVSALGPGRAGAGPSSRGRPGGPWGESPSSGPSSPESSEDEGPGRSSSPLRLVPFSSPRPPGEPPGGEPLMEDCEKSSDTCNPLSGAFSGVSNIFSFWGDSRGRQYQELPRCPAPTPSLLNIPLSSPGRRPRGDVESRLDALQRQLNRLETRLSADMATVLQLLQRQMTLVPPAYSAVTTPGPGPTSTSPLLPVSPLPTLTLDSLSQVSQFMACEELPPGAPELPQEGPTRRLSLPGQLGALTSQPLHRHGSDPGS
testDetails: CVS panel, hERGdof
Assay type: binding
conditionSet: human
measuredQuantity: pIC50
Please treat pIC50 as minus the base-10 logarithm of the molar concentration.

Task: Reported pIC50 for CCc1nc2ncc(Cl)cn2c1C(=O)NCc1ccc(N2CCN(S(=O)(=O)C(F)(F)F)C=N2)cc1 [Compound 13] : what is it?
Output: 5.13
